Listed molecules paired with reported inhibition
# TEST DESCRIPTION: M. tuberculosis H37Rv growth inhibitors, H37Rv strain (AID 1626);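 further: bacteria incubated seven days before Alamar blue readout; 0% = bacteria only wells and 100% = bacteria with antibiotic wells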
# CONDITIONS USED: stronger effect = higher value, concentration not given here
Hit rate of the full screen: of about 220,000 compounds, about 2,000 (0.91%) were called active. Another 2% or so got no clear call; they are omitted. Only a sample is shown. Potency and affinity values are given separately.
Supply the numeric figure in %, leaving out any unit text.

Below are worked cases with known answers.
INSERT INTO measurements (molecule, measurement) VALUES
  ('Cc1cc(C)nc(SCC(=O)Nc2nc(-c3ccccc3)c(-c3ccccc3)o2)n1', 5.45),
  ('Brc1ccc(-c2csc(/N=C/N3CCCC3)n2)cc1', 64.4),
  ('CCN(CC)C(=S)SCC(=O)Nc1ncc2c(n1)CC(C)(C)CC2=O', 1.56),
  ('Cc1nc2c(cnn2-c2ccccc2)c(=O)n1/N=C/c1ccccc1', 3.66),
  ('Cn1nnnc1SCC(=O)Nc1ccccc1-c1ccccc1', 36.5),
  ('Nc1cc2c(cc1C(=O)c1cccc(Br)c1)OCCO2', 4.56);

Q: Please look up its inhibition: `COC(=O)c1ccsc1NC(=O)C1=COCCO1`
A: 2.57

Q: Using the record for `CCN(Cc1ccccc1)C(=O)COC(=O)Cn1cnc2ccccc21` , report its inhibition.
A: 3.35

---

# TEST DESCRIPTION: M. tuberculosis H37Rv growth inhibitors, H37Rv strain (AID 1626)
# CONDITIONS USED: stronger effect = higher value, concentration not given here
Hit rate of the full screen: of about 220,000 compounds, about 2,000 (0.91%) were called active. Roughly 2% stayed inconclusive and do not appear here. Only a sample is shown. Measured potencies and affinities stand elsewhere.
RESULT TYPE: inhibition (%)
Your answer is read as %, so omit the unit and give the number.

Take a look at these entries with their results.
INSERT INTO results (compound, measurement) VALUES
  ('O=C(COc1ccccc1Br)Nc1ccccc1C(F)(F)F', 1.69),
  ('O=C1CC(N2CCC(O)CC2)C(=O)N1c1ccc(Br)cc1 (configuration not stated)', -5.77),
  ('CC1(C)NC(=O)N(CC(=O)Nc2cc(S(=O)(=O)N3CCOCC3)ccc2N2CCOCC2)C1=O', 0.65),
  ('O=C(c1coc2ccc(O)c(CN3CCOCC3)c12)C1CC1', 4.13),
  ('COc1ccc(S(=O)(=O)N2CCCCC2)cc1NC(=O)c1cc(C)on1', -0.76),
  ('Cc1ccc(NC(=O)CN(C)C(=O)COc2c(Cl)cc(Cl)c3ccc(C)nc23)cc1', 5.82),
  ('Cc1ccc2c(Cl)cc(Cl)c(OCC(=O)N(C(C)C)C(C)C)c2n1', 7.37),
  ('Cc1nc2cc(C(=O)OCC(=O)NC(C)C(C)C)ccc2n1-c1ccccc1 (configuration not stated)', -6.92),
  ('CCOc1ccccc1CNC(=O)CCN1C(=O)COc2ccccc21', 4.08),
  ('CC(c1ccccc1F)n1cc(C(=O)NCc2ccncc2)nn1 (configuration not stated)', -6.06);

Q: What does the data say about its inhibition? Entry: `O=C1CSC2=NCN(c3ccccc3)CN12`
A: 5.48

---

# TEST DESCRIPTION: M. tuberculosis H37Rv growth inhibitors, H37Rv strain (AID 1626);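 further: bacteria incubated seven days before Alamar blue readout; 0% = bacteria only wells and 100% = bacteria with antibiotic wells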
# CONDITIONS USED: stronger effect = higher value, concentration not given here
The whole screen tested about 220,000 compounds, of which about 2,000 (0.91%) were called active. Not shown: some 2% with an inconclusive outcome. Not all results are given here. Entries with a potency or affinity are not part of this list.
RESULT TYPE: inhibition (%)
Enter your answer as a number in %; do not include the unit.

INSERT INTO measurements (compound, unit_tag, measurement) VALUES
  ('CCC(CC)C(=O)Nc1ccc([N+](=O)[O-])cn1', '%', 1.14),
  ('Cc1ccc(NC(=O)/C=C\C(=O)NCC(=O)O)cc1', '%', -2.38),
  ('O=C(/C=C/c1cccc([N+](=O)[O-])c1)Nc1ccc(NC(=O)c2cccs2)cc1', '%', 3.17),
  ('CCc1ccc(CN(C)CC(=O)Nc2ccc3c(c2)CCC3)cc1', '%', 48),
  ('COc1ccccc1N1CCN(c2nc3ccccn3c(=O)c2C=O)CC1', '%', -13.2);

Q: Fill blank: measured inhibition of the compound `COc1ccc(CC(=O)Nc2ccc3c(c2)CCC3)cc1` is ____.
A: 9.72

Q: # query: inhibition of entry `O=C(NCCN1CCc2ccccc2C1)C1CCN(S(=O)(=O)N2CCC3(CC2)OCCO3)CC1`
A: -3

Q: Could you tell me which inhibition is on file for `Oc1ccc(-n2cnnn2)cc1` ?
A: -8.59

Q: So what does the record say about inhibition for `CC(=O)Nc1ccc(NC(=O)COc2ccc3c(c2)CCC3)cc1` ?
A: 10.5

Q: // returns reported inhibition for input Cc1cc(C)c(OCC(O)CN2CCN(c3ccccn3)CC2)c(C)c1 (stereo unspecified)
A: -4.16

Q: Request the reported inhibition associated with `COc1cccc(NC(=O)COc2ccc3c(c2)CCC3)c1`
A: 74.3

---

# maps each entry to its inhibition
# TEST DESCRIPTION: M. tuberculosis H37Rv growth inhibitors, H37Rv strain (AID 1626);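 further: bacteria incubated seven days before Alamar blue readout; 0% = bacteria only wells and 100% = bacteria with antibiotic wells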
# CONDITIONS USED: stronger effect = higher value, concentration not given here
About 2,000 (0.91%) of roughly 220,000 compounds were called active. Inconclusive results (about 2%) are left out. A selection follows. Results with a measured potency or affinity are listed apart.

Example results:
INSERT INTO assay_data (compound, result_type, measurement) VALUES
  ('CCC(=O)NC(=S)Nc1cccc(NC(=O)c2ccccc2Cl)c1', 'inhibition', '8.67% (inactive)'),
  ('Cc1cc(NC(=O)CSc2ccc(-c3cccc([N+](=O)[O-])c3)nn2)no1', 'inhibition', '13.3% (inactive)'),
  ('C/C(=N\NC(=O)c1cc(-c2ccncc2)nc2ccccc12)c1ccc(OC(F)F)cc1', 'inhibition', '0.28% (inactive)'),
  ('Nc1nc(CN2CCN(c3ccccc3F)CC2)nc(Nc2ccccc2)n1', 'inhibition', '55.9% (inactive)'),
  ('Cn1/c(=N\NC(=O)C2CCCCC2)sc2ccccc21', 'inhibition', '4.34% (inactive)'),
  ('O=C(COc1cccc(Cl)c1Cl)Nc1ccc2c(c1)CCC2', 'inhibition', '-7.06% (inactive)'),
  ('O=C(COc1ccccc1)Nc1cccc(-c2nc3cc4ccccc4cc3[nH]2)c1', 'inhibition', '55.3% (inactive)'),
  ('CC(Oc1ccc(Cl)cc1Cl)c1nc(-c2ccc(NC(=O)c3cccnc3)cc2)no1 (stereo unspecified)', 'inhibition', '76.2% (inactive)');

Q: Which value of inhibition has been reported for `COc1ccc(NC(=O)C(=O)NCCCn2ccnc2)cc1` in the records?
A: -13.8% (inactive)

Q: Given the entry `O=C(OCc1ccc(Cl)cc1)c1cnccn1` , report its measured inhibition.
A: 13.5% (inactive)

Q: Name the reported inhibition value associated with the compound CCN(c1ccc(NC(=O)CN2C(=O)NC3(CCOc4ccccc43)C2=O)cc1)C(C)C (stereo unspecified)
A: -1.8% (inactive)

Q: Dear colleague, I am looking for the recorded inhibition of the following compound: CC1=C(C(=O)N2CCOCC2)C(c2c(F)cccc2F)NC(=O)N1 (stereo unspecified)
A: -2.62% (inactive)

Q: Looking for the measured inhibition of O=C(O)C(Oc1ccc2c3c(c(=O)oc2c1)CCC3)c1ccccc1 (stereo unspecified) , can you help?
A: -10.3% (inactive)

Q: Reported inhibition for `Cc1ccc(S(=O)(=O)Nc2c(C)nn(C)c2C)cc1` : what is it?
A: -3.98% (inactive)

Q: Consider the compound shown here: CC1Cc2ccccc2N1C(=O)Cn1c(=O)cc(O)c2ccccc21 (stereo unspecified) What is its recorded inhibition?
A: -9.25% (inactive)

---

# TEST DESCRIPTION: M. tuberculosis H37Rv growth inhibitors, H37Rv strain (AID 1626);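 further: bacteria incubated seven days before Alamar blue readout; 0% = bacteria only wells and 100% = bacteria with antibiotic wells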
# CONDITIONS USED: stronger effect = higher value, concentration not given here
Screen size: about 220,000 compounds; about 2,000 (0.91%) were called active. About 2% were inconclusive and are not listed. The list is a sample of the results. Entries with a potency or affinity are not part of this list.
RESULT TYPE: inhibition (%)
Lab book: enter the figure in %, no units written.

Below: 5 compounds and their reported inhibition.
INSERT INTO assay_data (smiles_str, result_type, unit_tag, measurement) VALUES
  ('Cc1ccccc1NC(=S)N(C)Cc1cn(C)c2ccccc12', 'inhibition', '%', 2.82),
  ('COc1ccc(S(=O)(=O)N(C)C2CCN(C)CC2)cc1', 'inhibition', '%', -0.56),
  ('O=C(NC1CCCCC1)N(Cc1nc2ccccc2c(=O)[nH]1)C1CCCCC1', 'inhibition', '%', 12.6),
  ('C=CCNC(=O)c1sc(-c2ccccc2)nc1C', 'inhibition', '%', -4.4),
  ('Cc1ccc(CN=c2c([N+](=O)[O-])nn(-c3cccc(C)c3)n2O)cc1', 'inhibition', '%', -1.44);

Consider now this further compound.
Q: Look up inhibition: `Cc1ccc(C(=O)Nc2ccc3c(c2)CCC3)cc1`
A: 27.7
